Ref: patent US20210277110A1

Molecular target: T1, Extracellular domain of cyno PD1 (cPD1-ECD) (Macaca fascicularis (cynomolgus))
T1 construct: Expressed with a hexahistidine tag or as Fc fusion; also called cynoPD1-ECD; cynoPD-1-ECD
T1 chain: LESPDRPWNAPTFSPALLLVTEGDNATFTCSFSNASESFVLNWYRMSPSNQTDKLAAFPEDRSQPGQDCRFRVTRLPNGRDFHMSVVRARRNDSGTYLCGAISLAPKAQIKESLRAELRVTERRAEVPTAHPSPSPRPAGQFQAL
Test: SPR ProteOn, cynoPD1-ECD; RANGE low replicate
Measured attribute: koff (s⁻¹)

1) PD1B183 (antibody, human IgG2, kappa, V domains shown, IgG2sigma/kappa; VH 43, VL 54; also called PD1H3/PD1L109) VH: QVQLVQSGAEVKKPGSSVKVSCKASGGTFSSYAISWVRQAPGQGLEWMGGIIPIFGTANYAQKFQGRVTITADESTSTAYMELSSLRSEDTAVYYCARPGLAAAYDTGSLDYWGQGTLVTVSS VL: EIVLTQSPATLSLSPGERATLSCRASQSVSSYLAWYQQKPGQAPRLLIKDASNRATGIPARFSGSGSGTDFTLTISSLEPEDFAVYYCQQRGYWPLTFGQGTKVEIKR :: 0.00801
2) PD1B185 (antibody, human IgG2, kappa, V domains shown, IgG2sigma/kappa; VH 43, VL 55; also called PD1H3/PD1L132) VH: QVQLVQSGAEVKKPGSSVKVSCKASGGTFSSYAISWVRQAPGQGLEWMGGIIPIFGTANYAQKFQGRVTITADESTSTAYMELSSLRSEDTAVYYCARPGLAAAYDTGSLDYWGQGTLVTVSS VL: EIVLTQSPATLSLSPGERATLSCRASQSVRNYLAWYQQKPGQAPRLLIYDASDRATGIPARFSGSGSGTDFTLTISSLEPEDFAVYYCQQRWNWPLTFGQGTKVEIKR :: 0.00938
3) PD1B184 (antibody, human IgG2, kappa, V domains shown, IgG2sigma/kappa; VH 43, VL 50; also called PD1H3/PD1L128) VH: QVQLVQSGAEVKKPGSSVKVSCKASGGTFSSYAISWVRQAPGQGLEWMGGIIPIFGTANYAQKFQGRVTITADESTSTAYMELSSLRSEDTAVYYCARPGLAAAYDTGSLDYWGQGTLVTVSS VL: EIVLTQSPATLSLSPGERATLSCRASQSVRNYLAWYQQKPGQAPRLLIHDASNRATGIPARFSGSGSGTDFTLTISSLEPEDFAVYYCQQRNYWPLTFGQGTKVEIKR :: 0.00255
4) PD1B192 (antibody, human IgG2, kappa, V domains shown, IgG2sigma/kappa; VH 43, VL 57; also called PD1H3/PD1L133) VH: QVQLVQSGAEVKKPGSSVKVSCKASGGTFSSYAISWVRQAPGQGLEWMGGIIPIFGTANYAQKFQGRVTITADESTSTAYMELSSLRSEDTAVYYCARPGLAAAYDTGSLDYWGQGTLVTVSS VL: EIVLTQSPATLSLSPGERATLSCRASQSVDSYLAWYQQKPGQAPRLLIHDASNRATGIPARFSGSGSGTDFTLTISSLEPEDFAVYYCQQRNYWPLTFGQGTKVEIKR :: 0.00486
